Can you tell me Tmax for the items I'm about to list?
Experiment: Lung-tissue pharmacokinetics of PG–OJ components in tumor-bearing mice (UPLC–MS/MS)
Type: in vivo, BALB/c nude male mice
Details: mouse, in vivo, po
Numbers only, in min.

CC(C)=CCC[C@](C)(O[C@@H]1O[C@H](CO)[C@@H](O)[C@H](O)[C@H]1O)[C@H]1CC[C@]2(C)[C@@H]1[C@H](O)C[C@@H]1[C@@]3(C)CC[C@H](O)C(C)(C)[C@@H]3[C@@H](O[C@@H]3O[C@H](CO)[C@@H](O)[C@H](O)[C@H]3O[C@@H]3OC[C@@H](O)[C@H](O)[C@H]3O)C[C@]12C [Notoginsenoside R1] : 7.50
CC(C)(O)[C@H]1CC[C@@](C)([C@H]2CC[C@]3(C)[C@@H]2[C@H](O)C[C@@H]2[C@@]4(C)CC[C@H](O)C(C)(C)[C@@H]4[C@@H](O[C@@H]4O[C@H](CO)[C@@H](O)[C@H](O)[C@H]4O)C[C@]23C)O1 [Pseudoginsenoside RT5] : 15.00
CC1(C)CC[C@]2(C(=O)O[C@@H]3O[C@H](CO)[C@@H](O)[C@H](O)[C@H]3O)CC[C@]3(C)C(=CC[C@@H]4[C@@]5(C)CC[C@H](O[C@@H]6O[C@H](C(=O)O)[C@@H](O)[C@H](O)[C@H]6O[C@@H]6O[C@H](CO)[C@@H](O)[C@H](O)[C@H]6O)C(C)(C)[C@@H]5CC[C@]43C)[C@@H]2C1 [Ginsenoside Ro] : 12.50
Cc1c(O)c(C)c2c(c1O)C(=O)[C@H](Cc1ccc3c(c1)OCO3)CO2 : 150.00

Continue with the compound presented below.
Ask | Entry under review: COc1ccc(C[C@@H]2COc3c(C)c(O)c(C)c(O)c3C2=O)cc1 . Reported Tmax?
Reply | 150.00
